test system: MCF-7 (breast cancer cell); test: Measurement of cellular proliferation, MCF-7 cells; assay type: cell-based; conditions: MCF-7, 48 hours
pIC50: −log10 of the molar value.
assayMetric: pIC50

Reference set, count: 2
For the compound shown here, COc1ccc(CCN2CCC[C@H]2COC(c2ccc(Cl)cc2)c2ccc(Cl)cc2)cc1 [TH-2019] , give the reported pIC50. 4.52

What about COc1ccc(CCN2CCC[C@H]2COC(c2ccccc2)c2ccc(Cl)cc2)cc1 (stereo partly shown) [TH-1177] ? 4.68

P. COc1ccc(CCN2CCC(COC(c3ccc(Cl)cc3)c3ccc(Cl)cc3)CC2)cc1 [TH-2043]
Q. COc1ccc(CCN2CCCC(COC(c3ccccc3)c3ccc(Cl)cc3)C2)cc1 (stereo not shown) [TH-1205]
Endpoint returns whichever of P and Q has the numerically higher pIC50. I would appreciate it if you answered with the label of your choice. P

* * *

system: LNCaP prostate cancer cells; assay: Measurement of cellular proliferation, LNCaP cells; further: test concentration or dose not given here; format: cell-based, human; settings: 48 hours, FIGS. 10-39
assayMetric: Effect on proliferation of LNCaP cells

State the recorded Effect on proliferation of LNCaP cells for this entry: c1ccc(C(CN2CCC(COC(c3ccccc3)c3ccccc3)CC2)c2ccccc2)cc1 inhibition

Now the same for c1ccc(C(CN2CCCCC2)c2ccccc2)cc1 inhibition

* * *

Tested on: PC3 prostate cancer cells
Assay: Measurement of cellular proliferation, PC3 cells
Format: cell-based, human
Details: FIG. 6B, 48 hours; read-out: IC50 for inhibition of PC3 proliferation
Description: Measurement of cellular proliferation: LNCaP cells at 2.5×10^4/well or PC3 cells at 5×10^4/well, both in a final volume of 100 μl, were plated in triplicate in standard flat bottom 96 well tissue culture plates in the presence of drug or vehicle (DMSO). […] Relative cell growth was determined with the CellTiter 96 aqueous cell proliferation assay (Promega, Madison, Wis.) as described by the manufacturer using an automated plate reader. […]
assayMetric: IC50 (µM)
Response body: numeric value in µM, unit text excluded.

Requested field: IC50. Item: COc1ccc(CCN2CCC[C@H]2COC(c2ccccc2)c2ccc(Cl)cc2)cc1 (stereo partly shown) [TH-1177] 14

* * *

test system: MCF-7 (breast cancer cell); test: Measurement of cellular proliferation, MCF-7 cells; type: cell-based; conditions: MCF-7, 48 hours
pIC50: −log10 of the molar value.
assayMetric: pIC50

Bench note: what pIC50 did COc1ccc(CCCN2CCC[C@H]2COC2c3ccccc3-c3ccccc32)cc1 show? 4.48

Moving on to COc1ccc(CCN2CCCC2COC(c2ccccc2)c2ccc(Cl)cc2)cc1 (stereo not drawn) 4.62

What about COc1ccc(CCN2CCC(COC(c3ccccc3)c3ccc(Cl)cc3)CC2)cc1 (stereo not drawn) ? 4.43
